Listed molecules paired with reported TGI
- Tested on: SF-295 CNS
- measurement-notes: NCI tumour cell line growth inhibition, 48 h

{"columns": ["molecule", "TGI"],
 "data": [
  ["COC(=O)C(=O)C(C(=O)OC)C(=O)C(=O)Nc1c(Cl)cc([N+](=O)[O-])cc1Cl (stereo not given)", "> 100 µM"],
  ["O=c1[nH]cnc2c1cnn2Cc1cnnn1COCCO", "> 100 µM"],
  ["O=C(CCc1ccccc1)CC1OC(=O)C(Cl)=C1Cl (stereo not given)", "87.4 µM"],
  ["CN(C)N=Nc1ccc(S(N)(=O)=O)cc1", "> 100 µM"],
  ["Cc1cc(O)c2c(c1)C(C1c3cccc(O)c3C(=O)c3c(O)cc(C)cc31)c1cccc(O)c1C2=O (stereo not given)", "4.31 µM"],
  ["CN(C)c1ccc2[nH]c3c(C(N)=O)cc(=O)c(=O)c=3oc2c1", "> 100 µM"],
  ["N=C(CC(=O)Nc1ccccn1)c1ccccc1", "> 100 µM"],
  ["CCNC(=S)NNC(=O)c1ccccc1Nc1ccccc1C(=O)NNC(=S)NCC", "> 100 µM"],
  ["Cc1cc(N(CCNc2ccnc3cc(Cl)ccc23)Cc2ccc3c(c2)OCO3)nc(N2CCCC2)n1", "2.88 µM"],
  ["CC(C)(C)[Si](C)(C)OC1[C@@H](COC(=O)NC(=O)CCl)O[C@@H](n2cnc3c(N)ncnc32)[C@H]1O[Si](C)(C)C(C)(C)C (stereo not given in full)", "14.3 µM"]
]}

----------
- Test system: UACC-257 melanoma
- measurement-notes: NCI tumour cell line growth inhibition, 48 h

{"columns": ["molecule", "result-units", "censoring-operator", "TGI"],
 "data": [
  ["CSc1ccc(C(=O)/C=C/c2ccc(Cl)cc2Cl)cc1", "µM", "=", 91.4],
  ["N=C(CC(=O)Nc1ccccn1)c1ccccc1", "µM", ">", 100],
  ["CCN(CC)c1c(C)nnn1C1OC(COC(C)=O)C(OC(C)=O)C(OC(C)=O)C1OC(C)=O (stereo unspecified)", "µM", ">", 100],
  ["C=C(C)C(=O)Nc1ccc(-c2c(-c3ccc(Oc4nccc(C)n4)c(F)c3)c3c(N)ncnc3n2C)cc1", "µM", "=", 23.6],
  ["COC(=O)C(CCC1(C)OCCO1)=[N+]=[N-]", "µM", ">", 100],
  ["Cn1cc2c3ccccc3nc-2c2ccccc21", "µM", "=", 5.85],
  ["CCCCCCCCCCCC[N+]12CC[N+](C)(CC1)CC2", "µM", ">", 100],
  ["CN(C)c1ccc2[nH]c3c(C(N)=O)cc(=O)c(=O)c=3oc2c1", "µM", "=", 6.18],
  ["CCSc1nc(N/N=C/c2cccs2)c2cnn(CO)c2n1", "µM", "=", 26.4],
  ["Cc1[nH]c2cc([N+](=O)[O-])ccc2c1[N+](=O)[O-]", "µM", "=", 43.9],
  ["COC1/C(=C\\C(C)=O)c2ccccc2N1C(C)=O (stereo unspecified)", "µM", ">", 100],
  ["COc1ccc(-c2nnc3n(C)c4ccccc4n3c2=O)cc1", "µM", ">", 100],
  ["O=C(CI)Nc1ccc(Br)cc1", "µM", "=", 4.66],
  ["COc1cccc(OC)c1NC(=O)C(=O)Nn1c(NNC(=O)c2ccncc2)nc2ccccc2c1=O", "µM", ">", 100],
  ["CN1CCN(c2ccc(NC3=CC(=O)c4ncncc4C3=O)cc2)CC1", "µM", "=", 0.357],
  ["CC1CN(CCO)CCN1c1ccccc1 (stereo unspecified)", "µM", ">", 100],
  ["CCOC(=O)N1CCC2(CC1)C[C@@](C(C)=O)(c1ccccc1)C(C)O2 (stereo partly specified)", "µM", ">", 100],
  ["O=S(O)c1cc(Cl)c(O)c(Cl)c1", "µM", ">", 100],
  ["COc1cc(O)c(Cc2ccccc2O)c(O)c1C(=O)CCc1ccccc1", "µM", "=", 16.1],
  ["O=C1Nc2ccc(Br)cc2/C1=N/N1C(=O)C(=O)N(C2CCCCC2)C1=S", "µM", "=", 34.7],
  ["COc1ccc2cc1Oc1ccc(cc1)C[C@@H]1c3cc(c(OC)cc3CCN1C)Oc1c(OC)c(OC)cc3c1[C@H](C2)N(C)CC3", "µM", "=", 28.9]
]}
